- assay.target: T1, human GIP receptor (human, UniProt P48546 22-466)
- T1 sequence (looked up): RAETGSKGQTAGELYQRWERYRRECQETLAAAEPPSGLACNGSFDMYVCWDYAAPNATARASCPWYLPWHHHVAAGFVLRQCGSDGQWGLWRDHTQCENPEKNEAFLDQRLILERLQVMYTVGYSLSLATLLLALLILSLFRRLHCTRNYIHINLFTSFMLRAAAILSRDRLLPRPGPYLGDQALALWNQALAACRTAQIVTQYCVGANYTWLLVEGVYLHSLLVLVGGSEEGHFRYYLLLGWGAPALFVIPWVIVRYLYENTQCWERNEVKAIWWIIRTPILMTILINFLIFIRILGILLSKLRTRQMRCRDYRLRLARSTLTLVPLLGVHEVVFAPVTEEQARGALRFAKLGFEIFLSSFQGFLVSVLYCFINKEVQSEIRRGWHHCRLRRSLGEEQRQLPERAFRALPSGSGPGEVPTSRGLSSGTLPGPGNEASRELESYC
- assay.explanation: cell-based or functional assay
Bridges are numbered along the chain shown (N, C = ends). Where no end group is shown, it is not given here. [ ]: non-standard residue; d: D form. The star is where a group is joined. Acetyl(2-(4-imidazolyl)) = O=C(Cc1c[nH]cn1)*; Aib = CC(C)(N)C(=O)O
Could you please report measured In vitro activity compared with native peptide (%) vs. GIP for the items listed next?
Numbers only, in %.

Sample answers from the record:
{"columns": ["binder", "display.unit", "meas.value"],
 "data": [
  ["Y[Aib]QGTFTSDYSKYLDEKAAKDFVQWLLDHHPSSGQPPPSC (bridge 16-20) [Triple agonist of SEQ ID NO: 77]", "%", 35.5],
  ["Y[Aib]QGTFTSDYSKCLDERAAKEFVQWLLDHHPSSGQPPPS (bridge 16-20) [Triple agonist of SEQ ID NO: 69]", "%", 62.8]
]}

Answer for every listed entry: what is its In vitro activity compared with native peptide (%) vs. GIP? The entries follow.
1. H[Aib]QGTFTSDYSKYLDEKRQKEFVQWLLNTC (bridge 16-20) [Triple agonist of SEQ ID NO: 51]
2. [Acetyl(2-(4-imidazolyl))][Aib]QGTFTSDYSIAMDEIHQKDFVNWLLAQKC (bridge 16-20) [Triple agonist of SEQ ID NO: 92]
3. H[Aib]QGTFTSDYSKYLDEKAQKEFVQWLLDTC (bridge 16-20) [Triple agonist of SEQ ID NO: 30]
4. H[Aib]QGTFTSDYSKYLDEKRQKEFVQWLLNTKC (bridge 16-20) [Triple agonist of SEQ ID NO: 58]

stdout:
1. 0.1
2. 0.4
3. 0.8
4. 0.2

Consider the following items and state reported In vitro activity compared with native peptide (%) vs. GIP for each.
1. H[Aib]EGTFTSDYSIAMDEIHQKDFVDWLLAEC (bridge 16-20) [Triple agonist of SEQ ID NO: 54]
2. H[Aib]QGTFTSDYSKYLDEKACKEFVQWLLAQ (bridge 16-20) [Triple agonist of SEQ ID NO: 31]

stdout:
0.1
2.4
